protocol.details: Kinetic solubility
Type: physicochemical
recorded.conditions: 37 °C, aqueous buffer, kinetic from dmso stock; PBS (pH 7.0)
value.type: solubility kinetic at 1 h (µM)
Report the value in µM with no unit label.

Please indicate solubility kinetic at 1 h recorded for CC(C)OC(=O)[C@H](C)N[P@](=O)(OC[C@H]1O[C@@](C#N)(c2ccc3c(N)ncnn23)[C@](C)(O)[C@@H]1OC(=O)C(C)C)Oc1ccccc1 [GS-6620, reference compound]
46

###

Test system: HCV GT1a replicon
protocol.details: HCV GT1a replicon, stably transfected Huh-Lunet cells
Assay type: cell-based, hepatitis C virus
recorded.conditions: Hepatitis C virus, 72 h, stably transfected Huh-Lunet cells, 3 days
value.type: EC50 (nM)
Number only, in nM; omit the unit.

CC(C)OC(=O)C(C)(C)N[P@](=O)(OC[C@H]1O[C@@](C#N)(c2ccc3c(N)ncnn23)[C@](C)(O)[C@@H]1O)Oc1ccccc1 : 380

# evaluate next
Read the entry CC(C)OC(=O)[C@H](C)N[P@](=O)(OC[C@H]1O[C@@](C#N)(c2ccc3c(N)ncnn23)[C@](C)(O)[C@@H]1OC(=O)C(C)C)Oc1ccccc1 [GS-6620, reference compound] and write its reported EC50.
110
